Test system: isolated guinea pig hearts
Method: Experiments on the Langendorff heart (isolated guinea pig hearts)
Conditions used: Cavia porcellus; 25 μg./ml. test substance in 50 ml. tyrode solution; average of 3-6 hearts; read-out: flowthrough, percentage change in comparison with the initial value
Reported property: activation at 25 µg/mL (%)
Quick reminder: number only, in %, skip the unit.

Reference set (3 entries):
{"Molecule": "O=C(O[C@H]1CO[C@H]2[C@@H]1OC[C@@H]2O[N+](=O)[O-])c1cccnc1 [Example 2b]", "Unit string": "%", "Result": 35.4}
{"Molecule": "O=[N+]([O-])O[C@H]1CO[C@H]2[C@@H]1OC[C@@H]2Oc1ccc(Cl)cc1 [Example 1c]", "Unit string": "%", "Result": 19.8}
{"Molecule": "CS(=O)(=O)O[C@@H]1CO[C@H]2[C@@H]1OC[C@@H]2O[N+](=O)[O-] [Example 4]", "Unit string": "%", "Result": 44.3}

With those in mind, consider the next molecule.
activation at 25 µg/mL reported for this molecule O=C(O[C@@H]1CO[C@H]2[C@@H]1OC[C@@H]2O[N+](=O)[O-])c1cccnc1 [Example 5b] : 23.6

###

Method: in vivo
Conditions used: mouse, iv, Evaluated LD50 -range, mice, as hydrochloride
Reported property: LD50 at 24 h

{"Structure as smiles": "O=C(O[C@H]1CO[C@H]2[C@@H]1OC[C@H]2O[N+](=O)[O-])c1cccnc1", "LD50 at 24 h": "> 200 mg/kg"}
{"Structure as smiles": "O=C(O[C@@H]1CO[C@H]2[C@@H]1OC[C@H]2O[N+](=O)[O-])c1cccnc1", "LD50 at 24 h": "< 200 mg/kg"}
{"Structure as smiles": "O=C(O[C@@H]1CO[C@H]2[C@@H]1OC[C@@H]2O[N+](=O)[O-])c1cccnc1", "LD50 at 24 h": "> 100 mg/kg"}

LD50 at 24 h reported for this compound O=C(O[C@H]1CO[C@H]2[C@@H]1OC[C@@H]2O[N+](=O)[O-])c1cccnc1 : ≥ 200 mg/kg

###

Tested on: isolated rat aorta preparations
Conditions used: read-out: potassium chloride spasm, […]
# note: exactly 3 µM is not below, so it is Criterion not met; use Criterion met for IC50 strictly under it

Exercise: Is IC50 strictly under 3 µM for the entry O=C(O[C@H]1CO[C@H]2[C@@H]1OC[C@@H]2O[N+](=O)[O-])c1cccnc1 ?
Key: Criterion not met

Exercise: Is IC50 strictly under 3 µM for the entry O=[N+]([O-])O[C@H]1CO[C@H]2[C@@H]1OC[C@@H]2Oc1ccc(Cl)cc1 ?
Key: Criterion not met

Exercise: Is IC50 strictly under 3 µM for the entry CS(=O)(=O)O[C@@H]1CO[C@H]2[C@@H]1OC[C@@H]2O[N+](=O)[O-] ?
Key: Criterion met

Exercise: Is IC50 strictly under 3 µM for the entry O=C(O[C@H]1CO[C@H]2[C@@H]1OC[C@H]2O[N+](=O)[O-])c1cccnc1 ?
Key: Criterion not met

Exercise: Is IC50 strictly under 3 µM for the entry O=C(O[C@@H]1CO[C@H]2[C@@H]1OC[C@@H]2O[N+](=O)[O-])c1cccnc1 ?
Key: Criterion not met
